Please go through the items and note down their IC50.
- Assay Name: Antiproliferative activity against human DU145 cells after 48 hrs by MTT assay
- Type: functional, cell-based
- Study Conditions: DU-145, 48 h
Give bare numbers, in µM.

Here are 3 compounds together with their reported answers.
>>> quantitative_readout("COc1ccc(/C=C2\\CC(C(=O)N3CCN(C(C)=O)CC3)C/C(=C\\c3ccc(OC)cc3)C2=O)cc1 (stereo not drawn)")
17.4
>>> quantitative_readout("COc1ccc(/C=C2\\CC(C(=O)Nc3ccc(N4CCOCC4)cc3)C/C(=C\\c3ccc(OC)cc3)C2=O)cc1 (stereo not drawn)")
15.6
>>> quantitative_readout("CN1CCN(c2cccc(NC(=O)C3C/C(=C\\c4ccccc4)C(=O)/C(=C/c4ccccc4)C3)c2)CC1 (stereo not drawn)")
8.69

Kindly review the next compound as well.
Q. Hello, please tell me recorded IC50 for this one: CN1CCN(c2ccc(NC(=O)C3C/C(=C\c4ccc(F)cc4)C(=O)/C(=C/c4ccc(F)cc4)C3)cc2)CC1 (stereo not drawn)
A. 2.63

// provenance: ChEMBL document CHEMBL3864166
